The reported measurements were obtained from paper PMC6021137.

Target: Stat5a (Homo sapiens, UniProt O60674)
Sequence (O60674 whole entry): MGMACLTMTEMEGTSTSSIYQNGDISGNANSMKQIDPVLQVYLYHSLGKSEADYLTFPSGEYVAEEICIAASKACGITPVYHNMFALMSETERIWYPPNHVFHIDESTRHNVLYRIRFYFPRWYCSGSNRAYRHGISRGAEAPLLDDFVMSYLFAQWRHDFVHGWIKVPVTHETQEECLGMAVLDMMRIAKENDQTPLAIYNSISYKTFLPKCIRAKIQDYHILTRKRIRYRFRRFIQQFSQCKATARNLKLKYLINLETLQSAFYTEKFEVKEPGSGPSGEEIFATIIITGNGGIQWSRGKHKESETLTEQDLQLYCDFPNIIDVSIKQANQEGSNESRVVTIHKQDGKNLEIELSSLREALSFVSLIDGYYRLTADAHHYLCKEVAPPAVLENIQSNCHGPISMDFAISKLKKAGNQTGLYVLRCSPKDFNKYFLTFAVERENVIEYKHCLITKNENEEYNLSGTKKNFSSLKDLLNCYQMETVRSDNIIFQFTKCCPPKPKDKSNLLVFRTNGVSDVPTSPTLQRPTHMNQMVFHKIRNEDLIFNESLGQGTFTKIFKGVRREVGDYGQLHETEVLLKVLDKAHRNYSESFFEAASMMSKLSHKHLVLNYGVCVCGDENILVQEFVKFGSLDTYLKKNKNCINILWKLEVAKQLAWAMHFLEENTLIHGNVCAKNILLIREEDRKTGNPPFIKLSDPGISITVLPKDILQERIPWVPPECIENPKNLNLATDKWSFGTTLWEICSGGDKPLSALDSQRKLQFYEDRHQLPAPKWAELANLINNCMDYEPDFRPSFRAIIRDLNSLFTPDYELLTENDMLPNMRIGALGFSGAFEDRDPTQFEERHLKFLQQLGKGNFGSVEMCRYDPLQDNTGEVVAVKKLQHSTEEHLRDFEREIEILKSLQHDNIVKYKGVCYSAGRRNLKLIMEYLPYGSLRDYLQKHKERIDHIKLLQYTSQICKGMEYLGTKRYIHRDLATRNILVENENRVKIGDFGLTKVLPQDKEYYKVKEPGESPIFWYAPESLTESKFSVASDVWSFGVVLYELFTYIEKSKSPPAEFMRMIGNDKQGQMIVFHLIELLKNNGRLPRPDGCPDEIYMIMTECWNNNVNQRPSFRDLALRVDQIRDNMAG
Assay: Stat5a phosphorylation, immunoprecipitation/immunoblotting, CWR22Pc cells
Assay type: cell-based
Conditions: read-out: IC50, inhibition of constitutive activation of Stat5a; exponentially growing CWR22Pc cells
PARAMETER_MEASURED: pIC50
Numbers only, as −log10 of the molar value.

Entry `Cc1cc(Nc2nc(N[C@@H](C)c3ncc(F)cn3)ncc2Cl)n[nH]1` : reported pIC50 = ? 8.15

* * *

Biological target: Stat5b (Homo sapiens, UniProt O60674)
Assay: Stat5b phosphorylation, immunoprecipitation/immunoblotting, CWR22Rv1 cells
Format: cell-based
Conditions: read-out: IC50 for Prl-induced Stat5b phosphorylation; serum-starved CWR22Rv1 cells, 10 nM hPrl
PARAMETER_MEASURED: pIC50
Numbers only, as −log10 of the molar value.

Entry `Cc1cc(Nc2nc(N[C@@H](C)c3ncc(F)cn3)ncc2Cl)n[nH]1` : reported pIC50 = ? 7.32

* * *

Molecular target: Stat5a (Homo sapiens, UniProt O60674)
Test: Stat5a phosphorylation, immunoprecipitation/immunoblotting, CWR22Rv1 cells
Type: cell-based
Conditions: read-out: IC50, inhibition of constitutive activation of Stat5a; exponentially growing CWR22Rv1 cells
PARAMETER_MEASURED: IC50 (µM)
Give bare numbers, in µM.

Entry Cc1cc(Nc2nc(N[C@@H](C)c3ncc(F)cn3)ncc2Cl)n[nH]1 [AZD1480] : reported IC50 = ? 0.016
